Below, each of the binders is paired with its reported Affinity ELISA CPE mutant ratio (1:3, pH 6.0/7.4) value.
# targetUnderTest: Axl (UniProt P30530)
# Sequence (P30530 26-451 limits assumed): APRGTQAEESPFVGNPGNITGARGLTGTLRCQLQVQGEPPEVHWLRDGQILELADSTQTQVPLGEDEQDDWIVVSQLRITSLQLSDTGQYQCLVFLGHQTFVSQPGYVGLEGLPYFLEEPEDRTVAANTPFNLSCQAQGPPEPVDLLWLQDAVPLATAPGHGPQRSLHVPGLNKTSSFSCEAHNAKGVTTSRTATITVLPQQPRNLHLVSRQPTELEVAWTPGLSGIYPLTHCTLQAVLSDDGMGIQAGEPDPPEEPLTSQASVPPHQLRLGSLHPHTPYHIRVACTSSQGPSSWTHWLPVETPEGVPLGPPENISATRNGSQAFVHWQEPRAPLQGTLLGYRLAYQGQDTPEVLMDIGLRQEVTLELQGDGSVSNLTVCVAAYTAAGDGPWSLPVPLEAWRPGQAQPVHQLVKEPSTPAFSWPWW
# testDetails: ELISA, 1:3 dilution
Field format: numeric only.

binder: LC-V029D (antibody, V domains shown) VH: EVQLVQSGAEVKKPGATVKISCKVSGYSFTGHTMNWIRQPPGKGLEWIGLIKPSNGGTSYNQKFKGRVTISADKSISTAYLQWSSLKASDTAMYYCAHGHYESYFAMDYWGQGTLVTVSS VL: DIQMTQSPSSLSASVGDRVTITCKASQDDSSAVAWYQQKPGQAPRLLIYWASTRHTGVPSRFSGSGSGTEFTLTISSLQPDDFATYYCQEHFSTPLTFGQGTKVEIK
testValue: 2.88

Lookup result for HC-M107E (antibody, V domains shown) VH: EVQLVQSGAEVKKPGATVKISCKVSGYSFTGHTMNWIRQPPGKGLEWIGLIKPSNGGTSYNQKFKGRVTISADKSISTAYLQWSSLKASDTAMYYCAHGHYESYFAEDYWGQGTLVTVSS VL: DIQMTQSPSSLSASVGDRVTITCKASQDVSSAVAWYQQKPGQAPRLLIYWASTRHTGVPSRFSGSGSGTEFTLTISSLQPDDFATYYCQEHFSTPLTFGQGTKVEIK ; measured Affinity ELISA CPE mutant ratio (1:3, pH 6.0/7.4): 2.16
